# Tested on: A549 NSCLC
# test details: NCI tumour cell line growth inhibition, 48 h
readout kind: TGI

The following compounds have reported results that may help.
{"compound": "Cc1ccc(-c2nc(SCC(=O)O)n[nH]2)cc1", "TGI": "> 100 µM"}
{"compound": "CCCc1cc(=O)oc2c3c(c4c(c12)OC(C)(C)C=C4)O[C@@H](C)[C@H](C)C3=O", "TGI": "24.5 µM"}
{"compound": "CC(=O)OC1CC(n2cc(F)c(=O)[nH]c2=O)OC1CO (centres undefined)", "TGI": "> 90.8 µM"}
{"compound": "O=c1[nH]c(Nc2cccc(C(F)(F)F)c2)nc2nc[nH]c12", "TGI": "> 100 µM"}
{"compound": "COc1ccc(N2C(=O)C3ON(C(C(N)=O)c4ccccc4)C(c4ccc(-c5ccccc5)cc4)C3C2=O)cc1 (centres undefined)", "TGI": "> 50 µM"}
{"compound": "Cc1ccc(-c2c(C#N)c(S)n(NS(=O)(=O)c3ccc(C)cc3)c(=O)c2C#N)cc1", "TGI": "> 100 µM"}

Exam item: Recall and state the measured TGI for O=[N+]([O-])c1ccc(C2=NOC(c3ccccc3F)N2C23CC4CC(CC(C4)C2)C3)cc1 (centres undefined) .
Marked response: > 100 µM

Exam item: Provide only the value of recorded TGI for CCCCCC(O)C1C(=O)OC(C)C(O)/C=C/C=C/C=C/C=C\C=C(\C)C(O)CC(O)CC(O)CC(O)CC(O)CC(O)CC1O (centres undefined)
Marked response: > 100 µM

Exam item: Given the compound N#CCCN(CCC#N)c1ccc(C(N=Nc2ccccc2)=Nc2ccccc2)cc1 , write its reported TGI.
Marked response: > 100 µM

---

Entries and their measured TGI follow.
# Test system: UACC-257 melanoma
# test details: NCI tumour cell line growth inhibition, 48 h
Where a SMILES comes first, the peptide text is derived from it. [ ]: non-standard residue; d: D form. The star is where a group is joined. AllylGly = C=CC[CH](N)C(=O)O; Boc = CC(C)(C)OC(=O)*; OtBu = CC(C)(C)O*
Number in µM, nothing else.

Exam item: Look up and state reported TGI for C=CCC(NC(=O)C(CC(=O)OC(C)(C)C)NC(=O)OC(C)(C)C)C(=O)OC (stereo not given) (Boc-Asp(OtBu)-[AllylGly]-OMe; configuration not given here)
Marked response: 58.1

Exam item: Report TGI, nothing else, for this molecule: Cc1cccc2c1Oc1cc(Cl)ccc1C2NC(=O)CCN1CCN(CCO)CC1 (stereo not given)
Marked response: 33.7

Exam item: Identify measured TGI corresponding to CC(C)[C@@]12C[C@@H](OC(=O)[C@H]3CO3)[C@@](C)(O1)[C@@H]1CC[C@@H](C)[C@H]1[C@@H]2OC(=O)/C=C/c1ccccc1
Marked response: 50.6

---

# Test system: OVCAR-5 ovarian
# test details: NCI tumour cell line growth inhibition, 48 h
readout kind: TGI

{"compound": "COc1ccc2oc3c4c2c1CCC4CCC3=O (stereo unspecified)", "TGI": "> 100 µM"}

Exam item: Specify TGI for S=C(N/N=C(/c1ccccc1)c1ccccn1)Nc1ccccc1Cl , system OVCAR-5 ovarian.
Marked response: 6.94 µM

Exam item: # return TGI for Clc1ccc(SCCSCCCCCCCCCCSCCSc2ccc(Cl)cc2)cc1 , test system: OVCAR-5 ovarian
Marked response: > 100 µM

Exam item: Look up and report TGI, with OVCAR-5 ovarian as system, for CC(=O)N1CC(Nc2ccc(OC(F)(F)F)cc2)=CC1=O
Marked response: > 100 µM

Exam item: # lookup: OVCAR-5 ovarian TGI, key = O=C1CCC[C@]2(CCC[C@@H](O)C2)N1
Marked response: > 100 µM

Exam item: Report TGI on OVCAR-5 ovarian for this entry: Cn1c2c(c3ccccc31)C1CCCCC1C1C(=O)NC(=O)C21 (stereo unspecified)
Marked response: > 100 µM

Exam item: Provide TGI, system OVCAR-5 ovarian, entry CC(=O)c1ccc(NC(=O)CSc2nnc(-c3cc(-c4ccc(C)cc4)nc4ccccc34)o2)cc1
Marked response: > 100 µM

Exam item: Recall the reported TGI of C=C/C=C(\NC(=O)C(Cl)(Cl)Cl)[Si](C)(C)C on OVCAR-5 ovarian and write it down.
Marked response: > 100 µM

Data origin, for the record: PubChem BioAssay (NCI)
